Values were extracted from ChEMBL document CHEMBL1127514.

# Tested on: HL-60
# Test: The ability to induce differentiation of human promyelocytic leukemia cell line HL-60 to mature granulocytes relative to retinoic acid was determined by nitro blue tetrazolium (NBT) reduction assay
# Assay type: functional
Could you please mark rule met for values of Relative activity below 5 and rule not met for values at or above it?

Answered examples (5):
CN1C(=O)CC(c2ccc(C(=O)O)cc2)=Nc2cc3c(cc21)C(C)(C)CCC3(C)C | rule met
Cn1c(-c2ccc(C(=O)O)cc2)nc2cc3c(cc21)C(C)(C)CCC3(C)C | rule not met
CC1=C(/C=C/C(C)=C/C=C/C(C)=C/C(=O)O)C(C)(C)CCC1 [TRETINOIN] | rule not met
CC1(C)CCC(C)(C)c2cc(NC(=O)c3ccc(C(=O)O)cc3)ccc21 [TAMIBAROTENE] | rule not met
CC(C)n1c(-c2ccc(C(=O)O)cc2)nc2cc3c(cc21)C(C)(C)CCC3(C)C | rule met

Problem: Relative activity strictly < 5 for this compound? CC1(C)CCC(C)(C)c2cc3c(cc21)Nc1ccccc1C(c1ccc(C(=O)O)cc1)N3 (stereo not drawn)
Result: rule met

Problem: Field entry: CC1(C)CCC(C)(C)c2cc3[nH]c(-c4ccc(C(=O)O)cc4)nc3cc21
Result: rule met

* * *

# Tested on: HL-60
# Test: The ability to induce differentiation of human promyelocytic leukemia cell line HL-60 to mature granulocytes was determined by nitro blue tetrazolium (NBT) reduction assay
# Type: functional
# Run Parameters: read-out: ED50 (the source's name)
Item-by-item account of EC50
Respond numerically; units are µM and should not be typed.

Here is how some compounds turned out for EC50.
CN1C(=O)CC(c2ccc(C(=O)O)cc2)=Nc2cc3c(cc21)C(C)(C)CCC3(C)C | 0.53
Cn1c(-c2ccc(C(=O)O)cc2)nc2cc3c(cc21)C(C)(C)CCC3(C)C | 0.0034
CCn1c(-c2ccc(C(=O)O)cc2)nc2cc3c(cc21)C(C)(C)CCC3(C)C | 0.046

Problem: For the compound CC1(C)CCC(C)(C)c2cc(NC(=O)c3ccc(C(=O)O)cc3)ccc21 [TAMIBAROTENE] , what EC50 is on record?
Result: 0.00079

Problem: Please give the result for CC1=C(/C=C/C(C)=C/C=C/C(C)=C/C(=O)O)C(C)(C)CCC1 [TRETINOIN] too.
Result: 0.0024

Problem: Here is the next compound: CC1(C)CCC(C)(C)c2cc3[nH]c(-c4ccc(C(=O)O)cc4)nc3cc21
Result: 0.32
